molecular target: human insulin receptor (HIR) (human) (UniProt P06213); experiment: HIR Kd; method not restated (Example 3: 125I-insulin displacement, solubilised HIR)
In this section, each of the binders is paired with its reported Kd.
Supply the numeric figure in nM, leaving out any unit text.

Study these solved cases before continuing.
binder="Fusion 437 (MBP fusion of H2C) (protein, not shown: large carriers; small tags and cut ends) NNNNLGIEGRISEFIEGRAQPAMAFHENFYDWFVRQVSAAAGAPVPYPDPLEPRAA" readout_label=Kd measure_unit=nM val=8300
binder="Fusion 435 (MBP fusion of H2C-3aa-H2C-3aa-H2C) (protein, not shown: large carriers; small tags and cut ends) NNNNLGIEGRISEFIEGRAQPAMAFHENFYDWFVRQVSGGSFHENFYDWFVRQVSGGSFHENFYDWFVRQVSAAAGAPVPYPDPLEPRAA" readout_label=Kd measure_unit=nM val=2000

Would you kindly look at the next entry?
// recorded Kd for Fusion 464 (MBP fusion of LF-H2C) (protein, not shown: large carriers; small tags and cut ends) NNNNLGIEGRISEFIEGRDYKDDDDKFHENFYDWFVRQVSAAGAPVPYPDPLEPRAA : 39
